Entries and their Ratio CC50/IC50
# measurement-protocol: Selectivity index, ratio of CC50 for human HepG2(2.2.15) cells to IC50 for Hepatitis B virus infected in human HepG2(2.2.15) cells assessed as inhibition of viral DNA replication
# Type: functional

molecule	Ratio CC50/IC50
CC(=O)[C@]1(O)CC[C@@]2(O)[C@]1(C)[C@H](OC(=O)/C=C(\C)C(C)C)C[C@@H]1[C@@]3(C)CC[C@H](OC(=O)/C=C/c4ccc(Cl)cc4)CC3=CC[C@]12O	43.1
CC(=O)[C@]1(O)CC[C@@]2(O)[C@]1(C)[C@H](OC(=O)/C=C(\C)C(C)C)C[C@@H]1[C@@]3(C)CC[C@H](O)CC3=CC[C@]12O	6
COc1ccc(/C=C/C(=O)O[C@H]2CC[C@@]3(C)C(=CC[C@]4(O)[C@@H]3C[C@@H](OC(=O)/C=C(\C)C(C)C)[C@@]3(C)[C@]4(O)CC[C@@]3(O)C(C)=O)C2)cc1	>127.1
COc1cccc(/C=C/C(=O)O[C@H]2CC[C@@]3(C)C(=CC[C@]4(O)[C@@H]3C[C@@H](OC(=O)/C=C(\C)C(C)C)[C@@]3(C)[C@]4(O)CC[C@@]3(O)C(C)=O)C2)c1	>241.2
CC(=O)[C@]1(O)CC[C@@]2(O)[C@]1(C)[C@H](OC(=O)/C=C(\C)C(C)C)C[C@@H]1[C@@]3(C)CC[C@H](OC(=O)/C=C/c4ccccc4Cl)CC3=CC[C@]12O	>50.1
COc1ccc(/C=C/C(=O)O[C@H]2CC[C@@]3(C)C(=CC[C@]4(O)[C@@H]3C[C@@H](OC(=O)/C=C(\C)C(C)C)[C@@]3(C)[C@]4(O)CC[C@@]3(O)C(C)=O)C2)cc1OC	>135.6
COc1ccccc1/C=C/C(=O)O[C@H]1CC[C@@]2(C)C(=CC[C@]3(O)[C@@H]2C[C@@H](OC(=O)/C=C(\C)C(C)C)[C@@]2(C)[C@]3(O)CC[C@@]2(O)C(C)=O)C1	>324.1
CC(=O)[C@]1(O)CC[C@@]2(O)[C@]1(C)[C@H](OC(=O)/C=C(\C)C(C)C)C[C@@H]1[C@@]3(C)CC[C@H](OC(=O)/C=C/c4ccccc4F)CC3=CC[C@]12O	68.1

Query (compound): `CC(=O)[C@]1(O)CC[C@@]2(O)[C@]1(C)[C@H](OC(=O)/C=C(\C)C(C)C)C[C@@H]1[C@@]3(C)CC[C@H](OC(=O)/C=C/c4cc(F)cc(F)c4)CC3=CC[C@]12O` ; field requested: Ratio CC50/IC50
>72

Then what about the compound `CC(=O)[C@]1(O)CC[C@@]2(O)[C@]1(C)[C@H](OC(=O)/C=C(\C)C(C)C)C[C@@H]1[C@@]3(C)CC[C@H](OC(=O)/C=C/c4cccc(Br)c4)CC3=CC[C@]12O` ?
97

---

Entries and their CC50
# measurement-protocol: Cytotoxicity against human HepG2(2.2.15) cells by modified-MTT assay
# Type: cell-based

Query (compound): `COc1cc(/C=C/C(=O)O[C@H]2CC[C@@]3(C)C(=CC[C@]4(O)[C@@H]3C[C@@H](OC(=O)/C=C(\C)C(C)C)[C@@]3(C)[C@]4(O)CC[C@@]3(O)C(C)=O)C2)cc(OC)c1` ; field requested: CC50
> 1020 µM

Then what about the compound `CC(=O)[C@]1(O)CC[C@@]2(O)[C@]1(C)[C@H](OC(=O)/C=C(\C)C(C)C)C[C@@H]1[C@@]3(C)CC[C@H](OC(=O)/C=C/c4ccc(C(F)(F)F)cc4)CC3=CC[C@]12O` ?
> 1270 µM

Then what about the compound `CC(=O)[C@]1(O)CC[C@@]2(O)[C@]1(C)[C@H](OC(=O)/C=C(\C)C(C)C)C[C@@H]1[C@@]3(C)CC[C@H](OC(=O)/C=C/c4ccc(F)c(C(F)(F)F)c4)CC3=CC[C@]12O` ?
> 1330 µM

Measured values drawn from ChEMBL document CHEMBL2046311 for this set.
